The origin of these recorded values is patent US20130053430A1.

System: human CETP mRNA
PROTOCOL DETAILS: Dose-dependent antisense inhibition of human CETP in SW872 liposarcoma cells (Example 2)
Assay type: cell-based
ASSAY SETUP: 300 nM, Lipofectin, ~16 hours (Example 2)
Strand notation (5' to 3'): a small letter for the sugar, then the base; units joined by * are phosphorothioate-linked, units joined directly phosphodiester-linked; [ ] holds rarer units or linkages, { } end groups; capitals alone tell only the bases. e = 2'-O-(2-methoxyethyl) (MOE); [5mC] = 5-methylcytosine; d = 2'-deoxy (DNA)

| SUBSTANCE | percent inhibition of CETP / % |
| --- | --- |
| ISIS 349506: 5-10-5 MOE gapmer CGCCTTTGCTGTTCATGAGG (e[5mC]*eG*e[5mC]*e[5mC]*eT*dT*dT*dG*d[5mC]*dT*dG*dT*dT*d[5mC]*dA*eT*eG*eA*eG*eG) | 93 |
| ISIS 349512: 5-10-5 MOE gapmer TTGCCTTCTGCTACAAGCCC (sugars from the 5' end e5 d10 e5, backbone and methylation of C not given here) | 97 |
| ISIS 349461: 5-10-5 MOE gapmer ATACTTGACTTGGCCAAGGA (eA*eT*eA*e[5mC]*eT*dT*dG*dA*d[5mC]*dT*dT*dG*dG*d[5mC]*d[5mC]*eA*eA*eG*eG*eA) | 88 |

----------
Test system: human CETP mRNA
PROTOCOL DETAILS: Dose-dependent antisense inhibition of human CETP in SW872 liposarcoma cells (Example 3)
Format: cell-based
ASSAY SETUP: 150 nM, Lipofectin, ~16 hours (Example 3)
Strand notation (5' to 3'): a small letter for the sugar, then the base; units joined by * are phosphorothioate-linked, units joined directly phosphodiester-linked; [ ] holds rarer units or linkages, { } end groups; capitals alone tell only the bases. e = 2'-O-(2-methoxyethyl) (MOE); [5mC] = 5-methylcytosine; d = 2'-deoxy (DNA)

| SUBSTANCE | percent inhibition of CETP |
| --- | --- |
| ISIS 17302: GCTTGCCTTCTGCTACAAGC, 6-8-6 MOE; first disclosed in U.S. Ser. No. 11/031,827 (antisense; sugars from the 5' end e6 d8 e6, backbone and methylation of C not given here) | 41% |
| ISIS 349513: 5-10-5 MOE gapmer TCCAGCTGTGAGCCTGGTGC (eT*e[5mC]*e[5mC]*eA*eG*d[5mC]*dT*dG*dT*dG*dA*dG*d[5mC]*d[5mC]*dT*eG*eG*eT*eG*e[5mC]) | 89% |
| ISIS 349517: 5-10-5 MOE gapmer CAGCACTTTAATGCCAGTGG (sugars from the 5' end e5 d10 e5, backbone and methylation of C not given here) | 91% |
| ISIS 17291: GACAAGTGGCTGATCTGGAT, 6-8-6 MOE; first disclosed in U.S. Ser. No. 11/031,827 (antisense; sugars from the 5' end e6 d8 e6, backbone and methylation of C not given here) | 0% |
| ISIS 17305: CCAGTGGGCCTTTAGGATAG, 6-8-6 MOE; first disclosed in U.S. Ser. No. 11/031,827 (antisense; sugars from the 5' end e6 d8 e6, backbone and methylation of C not given here) | 44% |

----------
Tested on: human CETP mRNA
PROTOCOL DETAILS: Antisense inhibition of human CETP mRNA in primary hepatocytes from huCETP transgenic mice (Example 4)
Type: cell-based, mouse
ASSAY SETUP: 200 nM, cytofectin, ~24 hours
Strand notation (5' to 3'): a small letter for the sugar, then the base; units joined by * are phosphorothioate-linked, units joined directly phosphodiester-linked; [ ] holds rarer units or linkages, { } end groups; capitals alone tell only the bases. e = 2'-O-(2-methoxyethyl) (MOE); [5mC] = 5-methylcytosine; d = 2'-deoxy (DNA)
Criterion: Percent inhibition of human CETP mRNA meeting or surpassing 60%. Met: rule met. Not met: rule not met.

| SUBSTANCE | LABEL CLASS |
| --- | --- |
| ISIS 349497: 5-10-5 MOE gapmer CCTCTTCAAATGTGTAAGCT (e[5mC]*e[5mC]*eT*e[5mC]*eT*dT*d[5mC]*dA*dA*dA*dT*dG*dT*dG*dT*eA*eA*eG*e[5mC]*eT) | rule met |
| ISIS 349508: 5-10-5 MOE gapmer TCTCGAGTGATAATCTCAGG (eT*e[5mC]*eT*e[5mC]*eG*dA*dG*dT*dG*dA*dT*dA*dA*dT*d[5mC]*eT*e[5mC]*eA*eG*eG) | rule met |
| ISIS 349463: 5-10-5 MOE gapmer CTGCTGGCGATGGACAAGTG (e[5mC]*eT*eG*e[5mC]*eT*dG*dG*d[5mC]*dG*dA*dT*dG*dG*dA*d[5mC]*eA*eA*eG*eT*eG) | rule met |
| ISIS 349503: 5-10-5 MOE gapmer GCGGTGATCATTGACTGCAG (eG*e[5mC]*eG*eG*eT*dG*dA*dT*d[5mC]*dA*dT*dT*dG*dA*d[5mC]*eT*eG*e[5mC]*eA*eG) | rule met |
| ISIS 349482: 5-10-5 MOE gapmer TGAAATGACCCTTGTGATGG (eT*eG*eA*eA*eA*dT*dG*dA*d[5mC]*d[5mC]*d[5mC]*dT*dT*dG*dT*eG*eA*eT*eG*eG) | rule met |
| ISIS 349471: 5-10-5 MOE gapmer GTCAGCTGTGTGTTGATCTG (eG*eT*e[5mC]*eA*eG*d[5mC]*dT*dG*dT*dG*dT*dG*dT*dT*dG*eA*eT*e[5mC]*eT*eG) | rule met |
| ISIS 349467: 5-10-5 MOE gapmer GTGGTGTAGCCATACTTCAG (eG*eT*eG*eG*eT*dG*dT*dA*dG*d[5mC]*d[5mC]*dA*dT*dA*d[5mC]*eT*eT*e[5mC]*eA*eG) | rule not met |
| ISIS 349478: 5-10-5 MOE gapmer ATGATGTTAGAGATGACGTT (eA*eT*eG*eA*eT*dG*dT*dT*dA*dG*dA*dG*dA*dT*dG*eA*e[5mC]*eG*eT*eT) | rule not met |
| ISIS 349456: 5-10-5 MOE gapmer TCGTGGTTCAACACCAGGAG (eT*e[5mC]*eG*eT*eG*dG*dT*dT*d[5mC]*dA*dA*d[5mC]*dA*d[5mC]*d[5mC]*eA*eG*eG*eA*eG) | rule not met |
| ISIS 349514: 5-10-5 MOE gapmer ACGCTGGAGGAGACACCAGG (eA*e[5mC]*eG*e[5mC]*eT*dG*dG*dA*dG*dG*dA*dG*dA*d[5mC]*dA*e[5mC]*e[5mC]*eA*eG*eG) | rule met |
